Target: hCA XII (Homo sapiens, UniProt O43570)
Sequence (O43570 25-354): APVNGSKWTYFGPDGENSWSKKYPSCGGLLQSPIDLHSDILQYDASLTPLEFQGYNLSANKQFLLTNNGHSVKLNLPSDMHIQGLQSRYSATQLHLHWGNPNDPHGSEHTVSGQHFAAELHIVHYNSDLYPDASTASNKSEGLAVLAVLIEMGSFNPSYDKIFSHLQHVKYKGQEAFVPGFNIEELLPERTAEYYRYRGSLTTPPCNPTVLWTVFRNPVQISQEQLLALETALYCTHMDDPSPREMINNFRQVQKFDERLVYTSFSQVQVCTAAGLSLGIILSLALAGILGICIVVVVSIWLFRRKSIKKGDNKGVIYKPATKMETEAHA
Test: hCA XII inhibition, stopped-flow assay
Format: biochemical
Conditions: stopped-flow technique; mean from three different assays, errors ±5–10%
endpoint: Ki (nM)

NS(=O)(=O)c1ccc(CCn2c(SCC(=O)NN=Cc3ccc(F)cc3)nc3ccccc3c2=O)cc1: 15.8
CC(=NNC(=O)CSc1nc2ccccc2c(=O)n1CCc1ccc(S(N)(=O)=O)cc1)c1ccc(F)cc1: 25.4

a. NS(=O)(=O)c1ccc(CCn2c(SCC(=O)NN=Cc3cccnc3)nc3ccccc3c2=O)cc1
b. CC(=NNC(=O)CSc1nc2ccccc2c(=O)n1CCc1ccc(S(N)(=O)=O)cc1)c1ccccc1Cl
-- ask Parameter check: reported Ki is higher for which label, a or b ? Pick one; state its label.
-- reply b
